B1: CPEB3 Ribozyme (parent)
chain: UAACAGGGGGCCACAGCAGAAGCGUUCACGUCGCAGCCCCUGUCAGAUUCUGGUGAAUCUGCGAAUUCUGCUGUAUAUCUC

- Variants of: B1
- PROTOCOL NOTES: self-cleavage, relative activity (ratio to wild type); higher = more cleavage; in vitro, sequencing

VARIANT NOTATION	self-cleavage
A21G G30C	0.15
U31A C79U	0.48
C12G C40A	0.11
A20G A65U	0.29
C17G U60A	0.19
G52A A56U	1.14
C14U U60G	0.41
A21G A56U	0.41
A3U G70U	0.19
G19U U31C	0.2
G9U U31C	0.13
G53A C79U	1.18
A57G G63A	0.84
A15U C34G	0.27
A3G C40A	0.32
G52U U69A	0.72
U58C U74C	0.87
G9U U54C	0.1
A13G C71G	0.12
